Sourced from patent US12371454B2

For each of the molecules below, state its IC50.
Target: Kras and SOS1 (biotin-tagged human Kras loaded with GDP, His-tagged human SOS1) (Homo sapiens, UniProt P01116, G12D)
Construct: made in house; host or cells: E. coli (stated for Kras only)
Sequence (P01116 1-188 isoform P01116-2 G12D): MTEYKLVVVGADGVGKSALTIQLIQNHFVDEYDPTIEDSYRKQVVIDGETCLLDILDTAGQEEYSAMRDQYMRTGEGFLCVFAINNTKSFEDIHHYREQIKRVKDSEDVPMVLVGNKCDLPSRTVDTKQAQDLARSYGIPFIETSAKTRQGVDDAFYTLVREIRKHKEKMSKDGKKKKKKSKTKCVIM
Test: Protein-protein interaction inhibition between Kras and SOS1 (KrasGl2D-SOS PPI) using AlphaScreen
Type: binding
Settings: AlphaScreen; biotin-tagged human Kras loaded with GDP, His-tagged human SOS1; read-out: KRAS G12D-SOS PPI IC50
Positions of bridges follow the written chain, without caps; N, C: chain ends. Non-standard residues stand in square brackets, D forms with d. Residues, ends and D or L forms follow the SMILES beside them. *: point of attachment. hPhe(3-Cl-4-CF3) = N[C@@H](CCc1ccc(C(F)(F)F)c(Cl)c1)C(=O)O; hPhe(4-CF3) = N[C@@H](CCc1ccc(C(F)(F)F)cc1)C(=O)O; NMePhe(4-Cl) = CN[C@@H](Cc1ccc(Cl)cc1)C(=O)O; NMePhe(4-Me) = CN[C@@H](Cc1ccc(C)cc1)C(=O)O; NMePhe(3-I) = CN[C@@H](Cc1cccc(I)c1)C(=O)O; NMePhe(2-F) = CN[C@@H](Cc1ccccc1F)C(=O)O; Phe(3-I) = N[C@@H](Cc1cccc(I)c1)C(=O)O; NMeCha = CN[C@@H](CC1CCCCC1)C(=O)O; NMeChg = CN[C@H](C(=O)O)C1CCCCC1; NMeF = CN[C@@H](Cc1ccccc1)C(=O)O; NMeI = CC[C@H](C)[C@H](NC)C(=O)O; hPhe = N[C@@H](CCc1ccccc1)C(=O)O; NMeD = CN[C@@H](CC(=O)O)C(=O)O; NMeL = CN[C@@H](CC(C)C)C(=O)O; NMeNva = CCC[C@H](NC)C(=O)O; NMeV = CN[C@H](C(=O)O)C(C)C; d(β3hA) = C[C@@H](N)CC(=O)O; NMeS = CN[C@@H](CO)C(=O)O; Morpholide = C1CN(*)CCO1; NMeA = CN[C@@H](C)C(=O)O; NMeAib = CNC(C)(C)C(=O)O; Nle = CCCC[C@H](N)C(=O)O; Piperidide = C1CCN(*)CC1; Pyrrolidide = C1CCN(*)C1; dNMeA = CN[C@H](C)C(=O)O; Ac5c = NC1(C(=O)O)CCCC1; Aze = O=C(O)[C@@H]1CCN1; Sar = CNCC(=O)O; Propyl = CCC*
Write the value in nM as a bare number.

Would you kindly share the measured IC50 for CC[C@H](C)[C@@H]1NC(=O)[C@H](CC(C)C)N(C)C(=O)C[C@@H](C(=O)N2CCCCC2)N(C)C(=O)[C@H](C(C)C)N(C)C(=O)C2(CCCC2)NC(=O)[C@@H]2CCCN2C(=O)[C@H](CCc2ccc(C(F)(F)F)c(Cl)c2)NC(=O)CN(C)C(=O)[C@H](CC(C)C)N(C)C(=O)[C@@H]2CCN2C(=O)[C@H](C)N(C)C1=O [Compound 1803] ([NMeL]I[NMeA][Aze][NMeL][Sar][hPhe(3-Cl-4-CF3)]P[Ac5c][NMeV][NMeD]-Piperidide; lactam N-11) ?
5.3

Cool, now CC[C@H](C)[C@@H]1NC(=O)[C@H](C)N(C)C(=O)C[C@@H](C)NC(=O)[C@H](CC(C)C)N(C)C(=O)[C@H](CC(C)C)N(C)C(=O)[C@@H]2CCCN2C(=O)[C@H](CCc2ccc(C(F)(F)F)cc2)NC(=O)CN(C)C(=O)[C@H](Cc2ccc(Cl)cc2)N(C)C(=O)CN(C)C(=O)CN(C)C1=O [Compound 902] (cyclo(I[Sar][Sar][NMePhe(4-Cl)][Sar][hPhe(4-CF3)]P[NMeL][NMeL][d(β3hA)][NMeA]))
140

Cool, now CCCC[C@@H]1NC(=O)[C@H](Cc2cccc(I)c2)NC(=O)CN(C)C(=O)[C@H](Cc2ccc(Cl)cc2)N(C)C(=O)CN(C)C(=O)CN(C)C(=O)[C@H]([C@@H](C)CC)NC(=O)[C@H](CC(C)C)N(C)C(=O)C[C@@H](C(=O)N2CCCC2)N(C)C(=O)[C@H](CCc2ccccc2)NC(=O)C(C)(C)N(C)C1=O [Compound 1430] ([NMeL]I[Sar][Sar][NMePhe(4-Cl)][Sar][Phe(3-I)][Nle][NMeAib][hPhe][NMeD]-Pyrrolidide; lactam N-11)
400

Cool, now CC[C@H](C)[C@@H]1NC(=O)[C@H](CC(C)C)N(C)C(=O)C[C@@H](C(=O)N(C)C)N(C)C(=O)[C@H]([C@@H](C)CC)N(C)C(=O)C2(CCCC2)NC(=O)[C@H](Cc2ccccc2F)N(C)C(=O)[C@H](CCc2ccc(C(F)(F)F)c(Cl)c2)NC(=O)CN(C)C(=O)[C@H](Cc2ccc(C)cc2)N(C)C(=O)[C@@H]2CCN2C(=O)[C@H](C)N(C)C1=O [Compound 616] ([NMeL]I[NMeA][Aze][NMePhe(4-Me)][Sar][hPhe(3-Cl-4-CF3)][NMePhe(2-F)][Ac5c][NMeI][NMeD]-NMe2; lactam N-11)
3.9

Cool, now CC[C@H](C)[C@@H]1NC(=O)[C@H](C)N(C)C(=O)C[C@@H](C)NC(=O)[C@H](CC(C)C)N(C)C(=O)[C@H](Cc2ccccc2)N(C)C(=O)[C@@H]2CCCN2C(=O)[C@H](CCc2ccc(C(F)(F)F)cc2)NC(=O)CN(C)C(=O)[C@H](Cc2ccc(Cl)cc2)N(C)C(=O)CN(C)C(=O)CN(C)C1=O [Compound 751] (cyclo(I[Sar][Sar][NMePhe(4-Cl)][Sar][hPhe(4-CF3)]P[NMeF][NMeL][d(β3hA)][NMeA]))
82

Cool, now CC[C@H](C)[C@@H]1NC(=O)[C@H](C)N(C)C(=O)C[C@@H](C(=O)N(C)C)N(C)C(=O)[C@H]([C@@H](C)CC)N(C)C(=O)C2(CCCC2)NC(=O)[C@H](Cc2cccc(I)c2)N(C)C(=O)[C@H](CCc2ccc(C(F)(F)F)c(Cl)c2)NC(=O)CN(C)C(=O)[C@H](Cc2ccc(C)cc2)N(C)C(=O)[C@@H]2CCN2C(=O)[C@H](C)N(C)C1=O [Compound 1944] ([NMeA]I[NMeA][Aze][NMePhe(4-Me)][Sar][hPhe(3-Cl-4-CF3)][NMePhe(3-I)][Ac5c][NMeI][NMeD]-NMe2; lactam N-11)
45

Cool, now CCCOC[C@H]1C(=O)N(C)CC(=O)N[C@@H](CCc2ccc(C(F)(F)F)c(Cl)c2)C(=O)N2CCC[C@H]2C(=O)NC2(CCCC2)C(=O)N(C)[C@@H](C2CCCCC2)C(=O)N(C)[C@H](C(=O)N2CCOCC2)CC(=O)N(C)[C@@H](CCC)C(=O)N[C@@H]([C@@H](C)CC)C(=O)N(C)CC(=O)N(C)CC(=O)N1C [Compound 1949] ([NMeNva]I[Sar][Sar][NMeS](Propyl)[Sar][hPhe(3-Cl-4-CF3)]P[Ac5c][NMeChg][NMeD]-Morpholide; lactam N-11)
0.6

Cool, now CC[C@H](C)[C@@H]1NC(=O)[C@H](C)N(C)C(=O)C[C@@H](C(=O)N2CCCCC2)N(C)C(=O)[C@H](C(C)C)N(C)C(=O)C2(CCCC2)NC(=O)[C@@H]2CCCN2C(=O)[C@H](CCc2ccc(C(F)(F)F)c(Cl)c2)NC(=O)[C@@H](C)N(C)C(=O)[C@H](CC2CCCCC2)N(C)C(=O)CN(C)C(=O)CN(C)C1=O [Compound 380] ([NMeA]I[Sar][Sar][NMeCha][dNMeA][hPhe(3-Cl-4-CF3)]P[Ac5c][NMeV][NMeD]-Piperidide; lactam N-11)
5.6

Cool, now CC[C@H](C)[C@@H]1NC(=O)[C@H](CC(C)C)N(C)C(=O)C[C@@H](C(=O)N2CCOCC2)N(C)C(=O)[C@H]([C@@H](C)CC)N(C)C(=O)C2(CCCC2)NC(=O)[C@@H]2CCCN2C(=O)[C@H](CCc2ccc(C(F)(F)F)c(Cl)c2)NC(=O)CN(C)C(=O)[C@H](CC2CCCCC2)N(C)C(=O)CN(C)C(=O)CN(C)C1=O [Compound 1979] ([NMeL]I[Sar][Sar][NMeCha][Sar][hPhe(3-Cl-4-CF3)]P[Ac5c][NMeI][NMeD]-Morpholide; lactam N-11)
0.64
